assayedTarget: Protein farnesyltransferase (Bos taurus, UniProt P29702+P49355)
assayName: Inhibition of bovine brain farnesyltransferase (FTase) farnesylation of viral K-Ras
pIC50: −log10 of the molar value.
# pIC50 >= 8 gives label 1, anything below gives label 0

Some entries whose results are on file:
Ask: Given Nc1cc([C@@H]2[C@@H]([N+](=O)[O-])C(c3ccccc3Br)CC(=O)N2Cc2cccnc2)ccc1O (some centres not stated) , state whether its pIC50 is at least 8.
Reply: label 0

Ask: Hi, just wondering whether O=C1CC(c2ccccc2Br)[C@H]([N+](=O)[O-])[C@@H](c2ccc(O)c(O)c2)N1Cc1cccnc1 (single isomer, unassigned; (-)) shows pIC50 of 8 or higher.
Reply: label 0

Continuing:
Ask: Threshold query (pIC50 >= 8) on O=[N+]([O-])[C@H]1C(c2ccccc2Br)CCN(Cc2cccnc2)[C@@H]1c1ccc(O)c(O)c1 (mixture of isomers)
Reply: label 1

Ask: Dear colleague, could you confirm whether O=[N+]([O-])[C@H]1C(c2ccccc2Br)CCN(Cc2cccnc2)[C@@H]1c1ccc(O)cc1 (single isomer, unassigned; (-)) has pIC50 at or above 8?
Reply: label 0

Ask: Kindly determine if pIC50 recorded for O=C1CC(c2ccccc2Br)[C@H]([N+](=O)[O-])[C@@H](c2ccc(O)cc2)N1Cc1cccnc1 (mixture of isomers) is above or exactly 8.
Reply: label 0

Ask: Does the compound O=[N+]([O-])[C@H]1C(c2ccccc2Br)CCN(Cc2cccnc2)[C@@H]1c1ccc(O)cc1 (single isomer, unassigned; (+)) have recorded pIC50 that is 8 or more?
Reply: label 1
